This listing pairs compounds with measured inhibition.
Target entity: Protein kinase C alpha type (Homo sapiens) (UniProt P17252);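 also: reported value is the mean inhibition, measured within the GSK PKIS screening panel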
Conditions: at 1 µM
Could you give me the number in %? Just the number is fine.

Solved entries (count: 8):
Cn1c(-c2nonc2N)nc2cnccc21    2.7
COc1cc(N2CCN(C(C)C)CC2)ccc1Nc1nc(Nc2cccc(F)c2C(=O)O)c2cc[nH]c2n1    2.23
N#Cc1ccc2c(-c3ccnc(NC4CC4)n3)c(-c3ccc(F)cc3)nn2c1    1.24
CNC(=O)c1sc(-n2cnc3cc(OC)c(OC)cc32)cc1OCc1ccccc1C(F)(F)F    0.93
CNC(=O)c1ncccc1Nc1nc(Nc2cc3c(cc2OC)CCCN3C(=O)CN(C)C)nc2[nH]ccc12    10.7
COc1cccc(-n2ncc3c(N/N=C/c4ccc(C(=O)NCCN(C)C)cc4)ncnc32)c1    9.37
CCS(=O)(=O)c1ccc(OC)c(Nc2ncc(-c3cccc(C(C)=O)c3)o2)c1    0.95
CC1=C(C(=O)Nc2ccc3[nH]ncc3c2)C(c2ccc(F)cc2)N=C(c2ccc(C(F)(F)F)nc2)N1 (centres undefined)    2.09

In the following, a different compound is considered.
Need inhibition, item COc1cc2c(cc1Nc1nc(Nc3cccc(F)c3C(N)=O)c3cc[nH]c3n1)N(C(=O)CN1CCN(C(C)C)CC1)CC2 1.01

----------
Target entity: Casein kinase I isoform gamma-3 (Homo sapiens) (UniProt Q9Y6M4);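 also: mean inhibition of CK1-g3, GSK PKIS screen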
Sequence (Q9Y6M4 whole entry, looked up, canonical isoform): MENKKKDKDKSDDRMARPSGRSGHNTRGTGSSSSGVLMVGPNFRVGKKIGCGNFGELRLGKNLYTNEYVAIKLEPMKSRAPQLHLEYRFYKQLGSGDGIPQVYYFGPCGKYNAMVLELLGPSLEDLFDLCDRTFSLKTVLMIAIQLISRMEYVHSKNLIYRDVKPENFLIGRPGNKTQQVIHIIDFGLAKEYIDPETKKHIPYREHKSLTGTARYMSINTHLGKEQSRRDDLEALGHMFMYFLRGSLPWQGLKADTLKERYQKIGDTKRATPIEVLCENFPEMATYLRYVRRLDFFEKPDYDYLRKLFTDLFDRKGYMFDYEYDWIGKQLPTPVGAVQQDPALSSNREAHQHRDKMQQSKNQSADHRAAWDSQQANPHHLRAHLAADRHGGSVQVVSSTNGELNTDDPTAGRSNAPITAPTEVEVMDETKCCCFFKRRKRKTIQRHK
Conditions: at 1 µM
Label Criterion met when inhibition >= 2%; otherwise Criterion not met.

Some solved cases for reference:
COc1ccc2ncn(-c3cc(O[C@H](C)c4ccccc4C(F)(F)F)c(C(N)=O)s3)c2c1    Criterion not met
CS(=O)(=O)CCNCc1ccc(-c2ccc3ncnc(Nc4ccc(OCc5cccc(C(F)(F)F)c5)cc4)c3c2)o1    Criterion met
COC(=O)Nc1nc2cc(Oc3ccc(NC(=O)Nc4ccccc4)cc3)ccc2[nH]1    Criterion not met
CCS(=O)(=O)c1ccc(OC)c(Nc2ncc(-c3cccc(F)c3)o2)c1    Criterion met
CC(C)c1ccc(-c2cc(-c3c[nH]nc3-c3ccccn3)ccn2)cc1    Criterion met
CC1=C(C(=O)Nc2ccc3[nH]ncc3c2)C(c2ccc(F)cc2)N=C(c2ccc(C(F)(F)F)nc2)N1 (stereo unspecified)    Criterion not met
CS(=O)(=O)Nc1ccc(-c2cc(-c3ccccc3)cc(C(N)=O)c2N)cc1    Criterion not met
c1cnn2ncc(-c3ccnc(NCCCN4CCOCC4)n3)c2c1    Criterion met
CC1=C(C(=O)Nc2ccc3[nH]nc(C)c3c2)C(c2ccc(C(F)(F)F)cc2)CC(=O)N1 (stereo unspecified)    Criterion met
CCn1c(-c2nonc2N)nc2cncc(C(=O)NCCNC)c21    Criterion met

Could you now look at the following compound, please?
Kindly determine if inhibition recorded for NS(=O)(=O)c1cccc(N/C=C2\C(=O)Nc3ccccc32)c1 is above or exactly 2%. Criterion met

----------
Target entity: Proto-oncogene tyrosine-protein kinase receptor Ret (Homo sapiens);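 also: each listed value is an averaged inhibition figure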
Conditions: at 1 µM
Label t when inhibition >= 7%; otherwise f.

Some solved cases for reference:
O=C(Nc1n[nH]c2nnc(-c3cccnc3)cc12)C1CC1    f
CCOc1ccc2c(-c3ccnc(Nc4cc(OC)cc(C(F)(F)F)c4)n3)cnn2n1    t
COc1c(C(N)=O)cc(-c2ccc(Cl)cc2)cc1-c1ccc(S(N)(=O)=O)cc1    f
CC1=C(C(=O)Nc2ccc3[nH]ncc3c2)C(c2ccc(F)cc2)N=C(c2ccc(C(F)(F)F)nc2)N1 (centres undefined)    t

Kindly determine if inhibition recorded for COC(=O)Nc1nc2cc(Oc3ccc(NC(=O)Nc4ccccc4)cc3)ccc2[nH]1 is above or exactly 7%. t

Kindly determine if inhibition recorded for NS(=O)(=O)c1ccc(N/N=C2\C(=O)Nc3cccc(CCc4ccncc4)c32)cc1 is above or exactly 7%. t

Kindly determine if inhibition recorded for COc1ccccc1-c1cc(/C=C2\C(=O)Nc3ncc(Br)cc32)cc(Br)c1O is above or exactly 7%. t

Kindly determine if inhibition recorded for CS(=O)(=O)CCNCc1ccoc1-c1ccc2ncnc(Nc3ccc(OCc4ccccc4)cc3)c2c1 is above or exactly 7%. f

All values here come from ChEMBL document CHEMBL1961873.
